# reported pKd; entries follow
target-of-assay: T1, SYNJ2BP, P57105
T1 sequence (P57105 8-110, limits assumed, looked up): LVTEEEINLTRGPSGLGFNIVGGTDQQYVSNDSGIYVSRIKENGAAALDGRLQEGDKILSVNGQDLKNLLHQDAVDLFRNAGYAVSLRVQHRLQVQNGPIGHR
experimental-details: holdup assay
Design: key: below the threshold = too weak to quantify, mostly under pKd 3.1 to 4
applied-conditions: plain residues with an end cap or a label only (N-terminal biotin on a linker: ado-ado)
Number only, please.

Take a look at these entries with their results.
binder	result
QGPVETESVV [SLC45A4, Q5BKX6]	4.49
KKMPSIESDV [GRIN2A, Q12879]	4.85
EVNETDDTKM [KCNJ1, P48048]	4.39

For record RRRESYSTTV [EVI5, O60447] the listed pKd is 4.89

For record MLSKQSESAI [FLVCR1, Q9Y5Y0] the listed pKd is 4.52

For record SGSLKLMTTV [DACT1, Q9NYF0] the listed pKd is 4.3

For record LGRSTPQSEV [DGKH, Q86XP1] the listed pKd is 4.49

For record SKENVQETQI [LRRC4B, Q9NT99] the listed pKd is 4.6

For record VKPQVSESKL [ACOT8, O14734] the listed pKd is 3.75
